- assay summary: UVA/UVB absorption of compound films on glass slides, with and without 20 hours ageing under UV (Xenon instrument)
- Assay type: physicochemical
- measurement context: transmission T (%); ageing for 20 hours under UV (Xenon instrument)
Would you please tag the item fulfilled when its Plate + tested compound UVA % is 1% or above, and not fulfilled when it is below?

# example entries with known answers
| compound | group |
| --- | --- |
| COc1ccc(/N=C2/C=C(NCC(=O)O)CCC2)cc1 | fulfilled |
| COc1ccc(/N=C2\CC(C)(C)CC3=C2SCC(C(=O)O)N3)cc1OC (stereo not shown) | not fulfilled |
| CC1(C)CC2=C(SCC(C(=O)O)N2)/C(=N/c2ccc(F)cc2)C1 (stereo not shown) | fulfilled |
| CC1(C)CC2=C(SCC(C(=O)O)N2)/C(=N/c2ccc(C(=O)NC(C)(C)C)cc2)C1 (stereo not shown) | fulfilled |
| CC1(C)CC2=C(SCC(C(=O)O)N2)/C(=N/c2ccccc2)C1 (stereo not shown) | fulfilled |

Check if Plate + tested compound UVA % >= 1% (inclusive). Item: COc1ccc(/N=C2\CC(C)(C)CC3=C2SCC(C(=O)O)N3)cc1 (stereo not shown)
fulfilled

* * *

- assay summary: In vitro UV protection performance (SPF in vitro, UVAPF, Critical Wavelength) by the Colipa UVA in vitro Method on PMMA plates
- Type: physicochemical
- measurement context: thin film 0.75 mg/cm^2 on roughened PMMA plate; absorbance before UV exposure
recorded endpoint: SPF in vitro
Lab note: write the figure by itself, no unit.

Examples with their reported SPF in vitro follow.
| compound | SPF in vitro |
| --- | --- |
| COc1ccc(/N=C2\CC(C)(C)CC3=C2SCC(C(=O)O)N3)cc1 (stereo not shown) [IA1] | 2.4 |
| COc1ccc(/N=C2\CC(C)(C)CC3=C2SCC(C(=O)O)N3)cc1OC (stereo not shown) [IF1] | 2.1 |
| CC1(C)CC2=C(SCC(C(=O)O)N2)/C(=N/c2ccc(C(=O)NC(C)(C)C)cc2)C1 (stereo not shown) [IE1] | 3.4 |

Kindly consider the entry below.
Assign SPF in vitro to the following record: CC1(C)CC2=C(SCC(C(=O)O)N2)/C(=N/c2ccc(F)cc2)C1 (stereo not shown) [IE4]
4.5

* * *

- assay summary: UVA/UVB absorption of compound films on glass slides, with and without 20 hours ageing under UV (Xenon instrument)
- Type: physicochemical
- measurement context: absorption A = (Tslide−Tslide+sample)/Tslide×100; no ageing
# maps each entry to its Tested compound UVA %
Write it as a number; the unit % goes unstated.

| molecule | Tested compound UVA %, % |
| --- | --- |
| COc1ccc(/N=C2\CC(C)(C)CC3=C2SCC(C(=O)O)N3)cc1OC (stereo not shown) [IF1] | 99.7 |

Assign Tested compound UVA % to the following record: CC1(C)CC2=C(SCC(C(=O)O)N2)/C(=N/c2ccccc2)C1 (stereo not shown) [IE2]
96.1

Assign Tested compound UVA % to the following record: COc1ccc(/N=C2/C=C(NCC(=O)O)CC(C)(C)C2)cc1 [ID2]
99.5

Assign Tested compound UVA % to the following record: CC1(C)CC2=C(SCC(C(=O)O)N2)/C(=N/c2ccc(C(=O)NC(C)(C)C)cc2)C1 (stereo not shown) [IE1]
98.9

Assign Tested compound UVA % to the following record: COc1ccc(/N=C2\CC(C)(C)CC3=C2SCC(C(=O)O)N3)cc1 (stereo not shown) [IA1]
98.9

Assign Tested compound UVA % to the following record: CC1(C)CC2=C(SCC(C(=O)O)N2)/C(=N/c2ccc(F)cc2)C1 (stereo not shown) [IE4]
99.5

Assign Tested compound UVA % to the following record: COc1ccc(/N=C2/C=C(NCC(=O)O)CCC2)cc1 [ID3]
99.5

* * *

- assay summary: UVA/UVB absorption of compound films on glass slides, with and without 20 hours ageing under UV (Xenon instrument)
- Type: physicochemical
- measurement context: transmission T (%); 20 g/L methanol solution on glass slide; no ageing
recorded endpoint: Plate + tested compound UVB % (%)
Write it as a number; the unit % goes unstated.

Examples with their reported Plate + tested compound UVB % follow.
| molecule | recorded endpoint | measured number |
| --- | --- | --- |
| COc1ccc(/N=C2\CC(C)(C)CC3=C2SCC(C(=O)O)N3)cc1OC (stereo not shown) | Plate + tested compound UVB % | 0.31 |
| CC1(C)CC2=C(SCC(C(=O)O)N2)/C(=N/c2ccc(F)cc2)C1 (stereo not shown) | Plate + tested compound UVB % | 0.46 |
| COc1ccc(/N=C2\CC(C)(C)CC3=C2SCC(C(=O)O)N3)cc1 (stereo not shown) | Plate + tested compound UVB % | 1.88 |
| CC1(C)CC2=C(SCC(C(=O)O)N2)/C(=N/c2ccccc2)C1 (stereo not shown) | Plate + tested compound UVB % | 2.12 |
| COc1ccc(/N=C2/C=C(NCC(=O)O)CC(C)(C)C2)cc1 | Plate + tested compound UVB % | 0.34 |

Assign Plate + tested compound UVB % to the following record: COc1ccc(/N=C2/C=C(NCC(=O)O)CCC2)cc1
0.33

Assign Plate + tested compound UVB % to the following record: CC1(C)CC2=C(SCC(C(=O)O)N2)/C(=N/c2ccc(C(=O)NC(C)(C)C)cc2)C1 (stereo not shown)
0.73

* * *

- assay summary: UVA/UVB absorption of compound films on glass slides, with and without 20 hours ageing under UV (Xenon instrument)
- Type: physicochemical
- measurement context: absorption A = (Tslide−Tslide+sample)/Tslide×100; ageing for 20 hours under UV
# maps each entry to its Tested compound UVA %
Write it as a number; the unit % goes unstated.

| compound | units | Tested compound UVA % |
| --- | --- | --- |
| CC1(C)CC2=C(SCC(C(=O)O)N2)/C(=N/c2ccccc2)C1 (stereo not shown) [IE2] | % | 95.0 |
| COc1ccc(/N=C2/C=C(NCC(=O)O)CCC2)cc1 [ID3] | % | 98.6 |
| CC1(C)CC2=C(SCC(C(=O)O)N2)/C(=N/c2ccc(F)cc2)C1 (stereo not shown) [IE4] | % | 98.4 |
| COc1ccc(/N=C2\CC(C)(C)CC3=C2SCC(C(=O)O)N3)cc1 (stereo not shown) [IA1] | % | 95.1 |
| CC1(C)CC2=C(SCC(C(=O)O)N2)/C(=N/c2ccc(C(=O)NC(C)(C)C)cc2)C1 (stereo not shown) [IE1] | % | 98.2 |

Assign Tested compound UVA % to the following record: COc1ccc(/N=C2/C=C(NCC(=O)O)CC(C)(C)C2)cc1 [ID2]
98.9

Assign Tested compound UVA % to the following record: COc1ccc(/N=C2\CC(C)(C)CC3=C2SCC(C(=O)O)N3)cc1OC (stereo not shown) [IF1]
99.6

* * *

# maps each entry to its Tested compound UVB %
- assay summary: UVA/UVB absorption of compound films on glass slides, with and without 20 hours ageing under UV (Xenon instrument)
- Format: physicochemical
- measurement context: absorption A = (Tslide−Tslide+sample)/Tslide×100; no ageing
Write it as a number; the unit % goes unstated.

Examples with their reported Tested compound UVB % follow.
| molecule | measured number |
| --- | --- |
| CC1(C)CC2=C(SCC(C(=O)O)N2)/C(=N/c2ccccc2)C1 (stereo not shown) [IE2] | 95.3 |
| CC1(C)CC2=C(SCC(C(=O)O)N2)/C(=N/c2ccc(C(=O)NC(C)(C)C)cc2)C1 (stereo not shown) [IE1] | 98.4 |
| COc1ccc(/N=C2\CC(C)(C)CC3=C2SCC(C(=O)O)N3)cc1OC (stereo not shown) [IF1] | 99.3 |
| COc1ccc(/N=C2\CC(C)(C)CC3=C2SCC(C(=O)O)N3)cc1 (stereo not shown) [IA1] | 95.8 |
| COc1ccc(/N=C2/C=C(NCC(=O)O)CCC2)cc1 [ID3] | 99.3 |
| CC1(C)CC2=C(SCC(C(=O)O)N2)/C(=N/c2ccc(F)cc2)C1 (stereo not shown) [IE4] | 99.0 |

Assign Tested compound UVB % to the following record: COc1ccc(/N=C2/C=C(NCC(=O)O)CC(C)(C)C2)cc1 [ID2]
99.2

* * *

# maps each entry to its Plate + tested compound UVA %
- assay summary: UVA/UVB absorption of compound films on glass slides, with and without 20 hours ageing under UV (Xenon instrument)
- Type: physicochemical
- measurement context: transmission T (%); 20 g/L methanol solution on glass slide; no ageing
Write it as a number; the unit % goes unstated.

Examples with their reported Plate + tested compound UVA % follow.
| compound | recorded endpoint | measured number |
| --- | --- | --- |
| COc1ccc(/N=C2\CC(C)(C)CC3=C2SCC(C(=O)O)N3)cc1OC (stereo not shown) [IF1] | Plate + tested compound UVA % | 0.24 |
| CC1(C)CC2=C(SCC(C(=O)O)N2)/C(=N/c2ccc(C(=O)NC(C)(C)C)cc2)C1 (stereo not shown) [IE1] | Plate + tested compound UVA % | 1.00 |
| CC1(C)CC2=C(SCC(C(=O)O)N2)/C(=N/c2ccccc2)C1 (stereo not shown) [IE2] | Plate + tested compound UVA % | 3.51 |
| CC1(C)CC2=C(SCC(C(=O)O)N2)/C(=N/c2ccc(F)cc2)C1 (stereo not shown) [IE4] | Plate + tested compound UVA % | 0.49 |
| COc1ccc(/N=C2\CC(C)(C)CC3=C2SCC(C(=O)O)N3)cc1 (stereo not shown) [IA1] | Plate + tested compound UVA % | 0.99 |

Assign Plate + tested compound UVA % to the following record: COc1ccc(/N=C2/C=C(NCC(=O)O)CC(C)(C)C2)cc1 [ID2]
0.44

Assign Plate + tested compound UVA % to the following record: COc1ccc(/N=C2/C=C(NCC(=O)O)CCC2)cc1 [ID3]
0.47
